# Species: Rattus norvegicus
# assay.name: Open TG-GATES - Regimen: Single
# Type: toxicity, organism-based, Sprague-Dawley
# Set-up: regimen Single, gender Male, age 6 weeks
# test.context: in vivo, po, 0 mg/kg, 24 h, tissue Plasma, route gavage, dose level Control
The following compounds are shown together with reported IP values.
Entry rule: numbers only, all in mg/dL.

In the examples that follow, each entry is paired with its recorded IP.
[[record]]
compound = "Cc1ccc2cc3c(ccc4ccccc43)c3c2c1CC3"
recorded_measurement = 7.1

[[record]]
compound = "Cc1cccc(C)c1OCC(C)N (centres undefined)"
recorded_measurement = 7.6

[[record]]
compound = "Cn1cc[nH]c1=S"
recorded_measurement = 7.6

[[record]]
compound = "C[C@H]1C(=O)O[C@@H]2CCN3CC=C(COC(=O)[C@](C)(O)[C@]1(C)O)[C@H]23"
recorded_measurement = 6.8

[[record]]
compound = "C=C(C)[C@H]1Cc2c(ccc3c2O[C@@H]2COc4cc(OC)c(OC)cc4[C@@H]2C3=O)O1"
recorded_measurement = 7.2

[[record]]
compound = "O=[N+]([O-])c1ccc(O)c([N+](=O)[O-])c1"
recorded_measurement = 7.6

[[record]]
compound = "CCOC(=O)C(C)(C)Oc1ccc(Cl)cc1 [CLOFIBRATE]"
recorded_measurement = 7

[[record]]
compound = "OCCN1CCN(CCCN2c3ccccc3Sc3ccc(C(F)(F)F)cc32)CC1"
recorded_measurement = 8.8


From here, focus on the item given below.
Task item: So what's the measured IP for this one? C[C@H]1O[C@H](O[C@H]2[C@H](O)[C@@H](O)[C@@H](O[C@H]3[C@H](O)[C@@H](O)C(O)O[C@@H]3CO)O[C@@H]2CO)[C@H](O)[C@@H](O)[C@@H]1N[C@H]1C=C(CO)[C@@H](O)[C@H](O)[C@H]1O (some centres undefined)
Reply: 8.3

----------
# Organism: Rattus norvegicus
# assay.name: Open TG-GATES - Regimen: Daily Repeat
# Format: toxicity, organism-based, Sprague-Dawley
# Design: regimen Daily Repeat, gender Male, age 6 weeks
# test.context: in vivo, po, 0 mg/kg, […], tissue Blood, route gavage, dose level Control, time 28 day
The following compounds are shown together with reported Hb values.
Entry rule: numbers only, all in g/dL.

In the examples that follow, each entry is paired with its recorded Hb.
[[record]]
compound = "O=[N+]([O-])c1ccc(O)c([N+](=O)[O-])c1"
reading_unit = "g/dL"
recorded_measurement = 14.8

[[record]]
compound = "C[C@H]1O[C@H](O[C@H]2[C@H](O)[C@@H](O)[C@@H](O[C@H]3[C@H](O)[C@@H](O)C(O)O[C@@H]3CO)O[C@@H]2CO)[C@H](O)[C@@H](O)[C@@H]1N[C@H]1C=C(CO)[C@@H](O)[C@H](O)[C@H]1O (some centres undefined)"
reading_unit = "g/dL"
recorded_measurement = 15.9

[[record]]
compound = "Cn1cc[nH]c1=S"
reading_unit = "g/dL"
recorded_measurement = 15.2

[[record]]
compound = "O=C1CN(/N=C/c2ccc([N+](=O)[O-])o2)C(=O)N1"
reading_unit = "g/dL"
recorded_measurement = 15

[[record]]
compound = "OCCN1CCN(CCCN2c3ccccc3Sc3ccc(C(F)(F)F)cc32)CC1"
reading_unit = "g/dL"
recorded_measurement = 15.2


Task item: So what's the measured Hb for this one? C[C@H]1C(=O)O[C@@H]2CCN3CC=C(COC(=O)[C@](C)(O)[C@]1(C)O)[C@H]23
Reply: 14.7

Task item: So what's the measured Hb for this one? C=C(C)[C@H]1Cc2c(ccc3c2O[C@@H]2COc4cc(OC)c(OC)cc4[C@@H]2C3=O)O1
Reply: 14.9

Task item: So what's the measured Hb for this one? CCOC(=O)C(C)(C)Oc1ccc(Cl)cc1 [CLOFIBRATE]
Reply: 15.2

Task item: So what's the measured Hb for this one? Cc1cccc(C)c1OCC(C)N (centres undefined)
Reply: 14.8

----------
# Species: Rattus norvegicus
# assay.name: Open TG-GATES - Regimen: Daily Repeat
# Format: toxicity, organism-based, Sprague-Dawley
# Parameters: regimen Daily Repeat, gender Male, age 6 weeks
# test.context: in vivo, po, 0 mg/kg, […], tissue Plasma, route gavage, dose level Control, time 28 day
The following compounds are shown together with reported Cl values.
Entry rule: numbers only, all in meq/L.

In the examples that follow, each entry is paired with its recorded Cl.
[[record]]
compound = "Cc1cccc(C)c1OCC(C)N (centres undefined)"
measured_property = "Cl"
reading_unit = "meq/L"
recorded_measurement = 104.2

[[record]]
compound = "CCOC(=O)C(C)(C)Oc1ccc(Cl)cc1 [CLOFIBRATE]"
measured_property = "Cl"
reading_unit = "meq/L"
recorded_measurement = 102.6

[[record]]
compound = "OCCN1CCN(CCCN2c3ccccc3Sc3ccc(C(F)(F)F)cc32)CC1"
measured_property = "Cl"
reading_unit = "meq/L"
recorded_measurement = 104.8

[[record]]
compound = "C[C@H]1O[C@H](O[C@H]2[C@H](O)[C@@H](O)[C@@H](O[C@H]3[C@H](O)[C@@H](O)C(O)O[C@@H]3CO)O[C@@H]2CO)[C@H](O)[C@@H](O)[C@@H]1N[C@H]1C=C(CO)[C@@H](O)[C@H](O)[C@H]1O (some centres undefined)"
measured_property = "Cl"
reading_unit = "meq/L"
recorded_measurement = 104.4

[[record]]
compound = "C=C(C)[C@H]1Cc2c(ccc3c2O[C@@H]2COc4cc(OC)c(OC)cc4[C@@H]2C3=O)O1"
measured_property = "Cl"
reading_unit = "meq/L"
recorded_measurement = 106.8

[[record]]
compound = "O=[N+]([O-])c1ccc(O)c([N+](=O)[O-])c1"
measured_property = "Cl"
reading_unit = "meq/L"
recorded_measurement = 103.4

[[record]]
compound = "C[C@H]1C(=O)O[C@@H]2CCN3CC=C(COC(=O)[C@](C)(O)[C@]1(C)O)[C@H]23"
measured_property = "Cl"
reading_unit = "meq/L"
recorded_measurement = 106.8

[[record]]
compound = "Cn1cc[nH]c1=S"
measured_property = "Cl"
reading_unit = "meq/L"
recorded_measurement = 105.4


Task item: So what's the measured Cl for this one? O=C1CN(/N=C/c2ccc([N+](=O)[O-])o2)C(=O)N1
Reply: 102.4

----------
# Organism: Rattus norvegicus
# assay.name: Open TG-GATES - Regimen: Daily Repeat
# Type: toxicity, organism-based, Sprague-Dawley
# Design: regimen Daily Repeat, gender Male, age 6 weeks
# test.context: in vivo, po, 0 mg/kg, […], tissue Blood, route gavage, dose level Control, time 7 day
measured.property: Ht (%)
Entry rule: numbers only, all in %.

In the examples that follow, each entry is paired with its recorded Ht.
[[record]]
compound = "O=[N+]([O-])c1ccc(O)c([N+](=O)[O-])c1"
recorded_measurement = 39.8

[[record]]
compound = "Cn1cc[nH]c1=S"
recorded_measurement = 38.9

[[record]]
compound = "C[C@H]1O[C@H](O[C@H]2[C@H](O)[C@@H](O)[C@@H](O[C@H]3[C@H](O)[C@@H](O)C(O)O[C@@H]3CO)O[C@@H]2CO)[C@H](O)[C@@H](O)[C@@H]1N[C@H]1C=C(CO)[C@@H](O)[C@H](O)[C@H]1O (stereo partly drawn)"
recorded_measurement = 41.6

[[record]]
compound = "Cc1cccc(C)c1OCC(C)N (stereo not drawn)"
recorded_measurement = 39.7

[[record]]
compound = "CCOC(=O)C(C)(C)Oc1ccc(Cl)cc1 [CLOFIBRATE]"
recorded_measurement = 41


Task item: So what's the measured Ht for this one? O=C1CN(/N=C/c2ccc([N+](=O)[O-])o2)C(=O)N1
Reply: 40.2

Task item: So what's the measured Ht for this one? C=C(C)[C@H]1Cc2c(ccc3c2O[C@@H]2COc4cc(OC)c(OC)cc4[C@@H]2C3=O)O1
Reply: 40.2

Task item: So what's the measured Ht for this one? C[C@H]1C(=O)O[C@@H]2CCN3CC=C(COC(=O)[C@](C)(O)[C@]1(C)O)[C@H]23
Reply: 38.4

----------
# Species: Rattus norvegicus
# assay.name: Open TG-GATES - Regimen: Daily Repeat
# Type: toxicity, organism-based, Sprague-Dawley
# Set-up: regimen Daily Repeat, gender Male, age 6 weeks
# test.context: in vivo, po, 0 mg/kg, […], tissue Plasma, route gavage, dose level Control, time 28 day
measured.property: RALB (g/dL)
Entry rule: numbers only, all in g/dL.

In the examples that follow, each entry is paired with its recorded RALB.
[[record]]
compound = "CCOC(=O)C(C)(C)Oc1ccc(Cl)cc1 [CLOFIBRATE]"
recorded_measurement = 3.5

[[record]]
compound = "O=[N+]([O-])c1ccc(O)c([N+](=O)[O-])c1"
recorded_measurement = 4

[[record]]
compound = "OCCN1CCN(CCCN2c3ccccc3Sc3ccc(C(F)(F)F)cc32)CC1"
recorded_measurement = 4.1

[[record]]
compound = "C[C@H]1O[C@H](O[C@H]2[C@H](O)[C@@H](O)[C@@H](O[C@H]3[C@H](O)[C@@H](O)C(O)O[C@@H]3CO)O[C@@H]2CO)[C@H](O)[C@@H](O)[C@@H]1N[C@H]1C=C(CO)[C@@H](O)[C@H](O)[C@H]1O (stereo not given in full)"
recorded_measurement = 2.8


From here, focus on the item given below.
Task item: So what's the measured RALB for this one? C=C(C)[C@H]1Cc2c(ccc3c2O[C@@H]2COc4cc(OC)c(OC)cc4[C@@H]2C3=O)O1
Reply: 3.8
